Biological target: DYRK1A (Homo sapiens (Human))
Assay: DYRK1A kinase assay (HotSpot, Reaction Biology)
Format: biochemical
Settings: purified recombinant kinase, 10 μM ATP, room temperature 120 min
valueType: IC50 (nM)
Give your result in nM as a bare value.

# example entries with known answers
• CN(C)C(=N)c1nc2ccc3ncnc(Nc4ccc(Br)cc4F)c3c2s1 = 147
• COC(=N)c1nc2ccc3ncnc(Nc4ccc(C#N)cc4)c3c2s1 = 3.89
• COC(=N)c1nc2ccc3ncnc(Nc4ccc(Br)cc4F)c3c2s1 = 3.6

Challenge: For the molecule shown here, "COC(=N)c1nc2ccc3ncnc(Nc4ccc(Cl)cc4Cl)c3c2s1" , give the reported IC50.
Response given: 0.22

Challenge: # repeat for "COC(=N)c1nc2ccc3ncnc(Nc4ccccc4)c3c2s1"
Response given: 1.81

Challenge: # repeat for "CCOC(=N)c1nc2ccc3ncnc(Nc4ccc(Br)cc4F)c3c2s1"
Response given: 33.2
